Test Conditions: in n-butanol, 308.15 K
Measure Name: solubility (mole fraction)

>>> value_measured("CC(=O)c1c(C)c([N+](=O)[O-])c(C(C)(C)C)c([N+](=O)[O-])c1C")
0.00972

====

Test Conditions: in n-butanol, 313.15 K
Measure Name: solubility (mole fraction)

>>> value_measured("CC(=O)c1c(C)c([N+](=O)[O-])c(C(C)(C)C)c([N+](=O)[O-])c1C")
0.012

====

Test Conditions: in ethyl acetate, 303.15 K
Measure Name: solubility (mole fraction)

>>> value_measured("CC(=O)c1c(C)c([N+](=O)[O-])c(C(C)(C)C)c([N+](=O)[O-])c1C")
0.122

====

Test Conditions: in n-butanol, 283.15 K
Measure Name: solubility (mole fraction)

>>> value_measured("CC(=O)c1c(C)c([N+](=O)[O-])c(C(C)(C)C)c([N+](=O)[O-])c1C")
0.00368

====

Test Conditions: in methanol, 298.15 K
Measure Name: solubility (mole fraction)

>>> value_measured("CC(=O)c1c(C)c([N+](=O)[O-])c(C(C)(C)C)c([N+](=O)[O-])c1C")
0.00272
